Cited source: patent US11124537B2

system name: GR (Homo sapiens (Human))
protocol notes: In Vitro GR Luciferase Reporter Assay
assay setup: CHO-K1-GR-MMTV-Luc reporter cells, antagonist assay, 10 nM Dexamethasone, 18-24 hours
observable: IC50

Prompt: # returns recorded IC50 (system: GR (Homo sapiens (Human))) for CC(C)N(C)c1ccc([C@H]2C[C@@]3(C)[C@@H](CC[C@@]3(O)C#CC(C)(C)C)[C@@H]3CCC4=CC(=O)CCC4=C32)cc1
Response: ≤ 100 nM

Prompt: Next entry: [2H]C([2H])([2H])C#C[C@]1(O)CC[C@H]2[C@@H]3CCC4=CC(=O)CCC4=C3[C@@H](c3cc(F)c(C)c(F)c3)C[C@@]21C
Response: ≤ 100 nM

Prompt: Next entry: CN(C(=O)CO)c1ccc([C@H]2C[C@@]3(C)[C@@H](CC[C@@]3(O)C#CC(C)(C)C)[C@@H]3CCC4=CC(=O)CCC4=C32)cc1
Response: > 100 nM

Prompt: Next entry: CC(C)C#C[C@]1(O)CC[C@H]2[C@@H]3CCC4=CC(=O)CCC4=C3[C@@H](c3cc(F)c(C(C)C)c(F)c3)C[C@@]21C [drawing 299]
Response: ≤ 100 nM

Prompt: Next entry: CC(C)C#C[C@]1(O)CC[C@H]2[C@@H]3CCC4=CC(=O)CCC4=C3[C@@H](c3ccc(N(C)C)c(F)c3)C[C@@]21C
Response: ≤ 100 nM

Next compound, please.
Prompt: # returns recorded IC50 (system: GR (Homo sapiens (Human))) for COC(C)(C)C#C[C@]1(O)CC[C@H]2[C@@H]3CCC4=CC(=O)CCC4=C3[C@@H](c3ccc(N(C)CC(F)(F)F)cc3)C[C@@]21C
Response: ≤ 100 nM

* * *

system name: GR (Homo sapiens (Human))
protocol notes: In Vitro GR Luciferase Reporter Assay
Assay type: cell-based
assay setup: CHO-K1-GR-MMTV-Luc reporter cells, antagonist assay, 10 nM Dexamethasone, 18-24 hours
observable: IC50

Some compounds with known IC50 results, for comparison:
Prompt: # returns recorded IC50 (system: GR (Homo sapiens (Human))) for CN(C)c1c(F)cc([C@H]2C[C@@]3(C)[C@@H](CC[C@@]3(O)C#CC(F)(F)F)[C@@H]3CCC4=CC(=O)CCC4=C32)cc1F
Response: > 100 nM

Prompt: Next entry: Cc1c(F)cc([C@H]2C[C@@]3(C)[C@@H](CC[C@@]3(O)C#Cc3ccc(N(C)C)cc3)[C@@H]3CCC4=CC(=O)CCC4=C32)cc1F
Response: > 100 nM

Prompt: Next entry: CC(C)(C)C#C[C@]1(O)CC[C@H]2[C@@H]3CCC4=CC(=O)CCC4=C3[C@@H](c3ccc(C4(C)COC4)cc3)C[C@@]21C
Response: ≤ 100 nM

Prompt: Next entry: CN(C)c1ccc([C@H]2C[C@@]3(C)[C@@H](CC[C@@]3(O)C#CC(C)(C)C)[C@@H]3CCC4=CC(=O)CCC4=C32)cc1
Response: ≤ 100 nM

Prompt: Next entry: Cc1ccc([C@H]2C[C@@]3(C)[C@@H](CC[C@@]3(O)C#CC3CC3)[C@@H]3CCC4=CC(=O)CCC4=C32)cc1F
Response: ≤ 100 nM

Prompt: Next entry: CC(C)(C)C#C[C@]1(O)CC[C@H]2[C@@H]3CCC4=CC(=O)CCC4=C3[C@@H](c3ccc(N4CCN(C(=O)CO)CC4)cc3)C[C@@]21C
Response: ≤ 100 nM

Next compound, please.
Prompt: # returns recorded IC50 (system: GR (Homo sapiens (Human))) for CN(C)c1cc(F)c([C@H]2C[C@@]3(C)[C@@H](CC[C@@]3(O)C#CC3CC3)[C@@H]3CCC4=CC(=O)CCC4=C32)cc1F
Response: ≤ 100 nM

* * *

system name: GR (Homo sapiens (Human))
protocol notes: In Vitro GR Luciferase Reporter Assay
assay setup: CHO-K1-GR-MMTV-Luc reporter cells, antagonist assay, 10 nM Dexamethasone, 18-24 hours
observable: IC50

Prompt: Any idea what its IC50 is? The molecule is Cc1ccc([C@H]2C[C@@]3(C)[C@@H](CC[C@@]3(O)C#CC(C)(C)C)[C@@H]3CCC4=CC(=O)CCC4=C32)cc1F
Response: ≤ 100 nM

More entries:
Prompt: Any idea what its IC50 is? The molecule is CC(C)(C)C#C[C@]1(O)CC[C@H]2[C@@H]3CCC4=CC(=O)CCC4=C3[C@@H](c3ccc(N4CCC[C@@H]4CO)cc3)C[C@@]21C [drawing 364]
Response: ≤ 100 nM

Prompt: Next entry: CC(C)c1ccc([C@H]2C[C@@]3(C)[C@@H](C[C@@H](C)[C@@]3(O)C#CC(C)(C)C)[C@@H]3CCC4=CC(=O)CCC4=C32)cc1
Response: > 100 nM

Prompt: Next entry: CC(C)(C)C#C[C@]1(O)CC[C@H]2[C@@H]3CCC4=CC(=O)CCC4=C3[C@@H](c3ccc(C(C)(C)C)cc3)C[C@@]21C [drawing 268]
Response: ≤ 100 nM

Prompt: Next entry: CN(C)c1ccc([C@H]2C[C@@]3(C)[C@@H](CC[C@@]3(O)C#CC(C)(C)C)[C@@H]3CCC4=CC(=O)CCC4=C32)c(F)c1F
Response: ≤ 100 nM

Prompt: Next entry: C[C@@H]1C[C@H]2[C@@H]3CCC4=CC(=O)CCC4=C3[C@@H](c3ccc(N(C)C)cc3)C[C@]2(C)[C@]1(O)C#CC(C)(C)C [drawing 335]
Response: > 100 nM

* * *

system name: UniProtKB P04150
protocol notes: In Vitro GR Luciferase Reporter Assay
assay setup: CHO-K1-GR-MMTV-Luc reporter cells, antagonist assay, 10 nM Dexamethasone, 18-24 hours
Listing of entries alongside the reported IC50.

Some molecules with known IC50 results, for comparison:
Prompt: Any idea what its IC50 is? The molecule is CN(C)c1ccc([C@H]2C[C@@]3(C)[C@@H](CC[C@@]3(O)C#Cc3ccccn3)[C@@H]3CCC4=CC(=O)CCC4=C32)cc1
Response: ≤ 100 nM

Prompt: Next entry: Cc1ccc([C@H]2C[C@@]3(C)[C@@H](CC[C@@]3(O)C#CC(C)C)[C@@H]3CCC4=CC(=O)CCC4=C32)cc1F
Response: ≤ 100 nM

Prompt: Next entry: CCN(C)c1cc(F)c([C@H]2C[C@@]3(C)[C@@H](CC[C@@]3(O)C#CC3CC3)[C@@H]3CCC4=CC(=O)CCC4=C32)c(F)c1
Response: ≤ 100 nM

More entries:
Prompt: Any idea what its IC50 is? The molecule is CN(C)c1ccc([C@H]2C[C@@]3(C)[C@@H](CC[C@@]3(O)C#CCO)[C@@H]3CCC4=CC(=O)CCC4=C32)cc1
Response: > 100 nM

* * *

system name: GR (Homo sapiens (Human), UniProt P04150)
Sequence (P04150 whole entry): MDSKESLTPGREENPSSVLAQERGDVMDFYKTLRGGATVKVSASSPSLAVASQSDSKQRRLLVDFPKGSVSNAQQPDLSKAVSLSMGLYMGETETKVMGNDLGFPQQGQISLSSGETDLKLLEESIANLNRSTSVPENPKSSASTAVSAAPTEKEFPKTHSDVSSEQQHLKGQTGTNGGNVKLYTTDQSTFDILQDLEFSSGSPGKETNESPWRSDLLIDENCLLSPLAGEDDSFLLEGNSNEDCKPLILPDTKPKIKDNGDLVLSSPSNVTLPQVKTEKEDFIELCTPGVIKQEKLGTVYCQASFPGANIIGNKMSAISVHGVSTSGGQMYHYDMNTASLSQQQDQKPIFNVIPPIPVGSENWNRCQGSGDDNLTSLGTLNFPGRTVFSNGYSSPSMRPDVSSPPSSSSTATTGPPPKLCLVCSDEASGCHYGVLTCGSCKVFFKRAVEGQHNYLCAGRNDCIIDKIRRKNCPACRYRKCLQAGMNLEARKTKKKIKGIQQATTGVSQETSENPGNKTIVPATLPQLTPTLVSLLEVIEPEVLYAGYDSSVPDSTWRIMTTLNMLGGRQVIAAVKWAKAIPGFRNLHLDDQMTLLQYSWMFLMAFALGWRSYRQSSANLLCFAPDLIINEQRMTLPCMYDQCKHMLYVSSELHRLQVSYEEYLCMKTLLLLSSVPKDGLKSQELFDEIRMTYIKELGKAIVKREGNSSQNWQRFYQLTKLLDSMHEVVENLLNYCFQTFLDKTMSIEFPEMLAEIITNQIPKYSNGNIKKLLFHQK
protocol notes: In Vitro GR Luciferase Reporter Assay
assay setup: CHO-K1-GR-MMTV-Luc reporter cells, antagonist assay, 10 nM Dexamethasone, 18-24 hours
Listing of entries alongside the reported IC50.

Some molecules with known IC50 results, for comparison:
Prompt: # returns recorded IC50 (system: GR (Homo sapiens (Human), UniProt P04150)) for Cc1ccc([C@H]2C[C@@]3(C)[C@@H](CC[C@@]3(O)C#CC(C)(C)C)[C@@H]3CCC4=CC(=O)CCC4=C32)cc1
Response: ≤ 100 nM

Prompt: Next entry: CC(C)(C)C#C[C@]1(O)CC[C@H]2[C@@H]3CCC4=CC(=O)CCC4=C3[C@@H](c3cccc(C4CC4)c3)C[C@@]21C [drawing 279]
Response: > 100 nM

Next molecule, please.
Prompt: # returns recorded IC50 (system: GR (Homo sapiens (Human), UniProt P04150)) for CN(CC(F)(F)F)c1ccc([C@H]2C[C@@]3(C)[C@@H](CC[C@@]3(O)C#CC(C)(C)C)[C@@H]3CCC4=CC(=O)CCC4=C32)cc1
Response: ≤ 100 nM

* * *

system name: UniProt P04150
protocol notes: In Vitro GR Luciferase Reporter Assay
assay setup: CHO-K1-GR-MMTV-Luc reporter cells, antagonist assay, 10 nM Dexamethasone, 18-24 hours
pIC50: −log10 of the molar value.
Listing of entries alongside the reported pIC50.

Some compounds with known pIC50 results, for comparison:
Prompt: Any idea what its pIC50 is? The compound is CCC#C[C@]1(O)CC[C@H]2[C@@H]3CCC4=CC(=O)CCC4=C3[C@@H](c3ccc4c(c3)OCCO4)C[C@@]21C [drawing 324]
Response: ≥ 7.00

Prompt: Next entry: C[C@]12C[C@H](c3ccc4c(c3)OCCO4)C3=C4CCC(=O)C=C4CC[C@H]3[C@@H]1CC[C@@]2(O)C#CC(F)(F)F
Response: ≥ 7.00

Next compound, please.
Prompt: Any idea what its pIC50 is? The compound is Cc1c(F)cc([C@H]2C[C@@]3(C)[C@@H](CC[C@@]3(O)C#CC(C)(C)C)[C@@H]3CCC4=CC(=O)CCC4=C32)cc1F
Response: < 7.00
